Origin of values: patent US9233961B2

Consider the following molecules and their measured EC50 readings.
Test system: Leishmania donovani axenic amastigote parasites
assayOverview: Leishmania donovani axenic amastigote proliferation assay
Type: cell-based
assayContext: axenic amastigotes in vitro, read-out: L. donovani amastigotes EC50

Answered examples (5):
- molecule: "Cc1cnc2nc(-c3cc(NC(=O)c4nc(C)cs4)ccc3Cl)[nH]c2c1 [Compound 80]"
  EC50: "5.9 µM"
- molecule: "Cc1cnc2nc(-c3cc(NC(=O)c4cc[nH]n4)ccc3Cl)[nH]c2c1 [Compound 157]"
  EC50: "> 25 µM"
- molecule: "O=C(Nc1ccc(Cl)c(-c2nc3ncc(-c4ccc(OCCN5CCOCC5)cc4)cc3[nH]2)c1)N1CCCC1 [Compound 299]"
  EC50: "0.73 µM"
- molecule: "O=C(Nc1ccc(F)c(-c2nc3ncc(Br)cc3o2)c1)c1cnco1 [Compound 408]"
  EC50: "3.8 µM"
- molecule: "Cc1ccnc(C(=O)Nc2ccc(Cl)c(-c3nc4ncc(C)cc4[nH]3)c2)c1 [Compound 172]"
  EC50: "> 25 µM"

Prompt line: Provide only the value of recorded EC50 for Cc1cnc2nc(-c3cc(NC(=O)c4cc(Cl)cc(Cl)c4)ccc3Cl)[nH]c2c1 [Compound 196]
Response line: > 25 µM

Prompt line: Using known records, supply EC50 for Cc1cnc2nc(-c3cc(NC(=O)c4nnc(C)o4)ccc3Cl)[nH]c2c1 [Compound 106]
Response line: > 25 µM

Prompt line: Please report EC50 for the following molecule: Cc1cnc2nc(-c3cc(NC(=O)OCC(F)(F)F)ccc3Cl)[nH]c2c1 [Compound 225]
Response line: > 25 µM
